B1: library; a variant is named by its letters at N, in order (parent)
chain: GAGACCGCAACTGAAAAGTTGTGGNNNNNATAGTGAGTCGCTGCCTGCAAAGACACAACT

Variants of: B1
assay.protocol: ligation selection enrichment (abundance after / before one-round selection) (fold); higher = more template-directed ligation activity
condition: with T7Psub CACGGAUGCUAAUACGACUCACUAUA; MgCl2 25 mM; 42 °C; 4 h; pH 8.5
Binary call on ligation selection enrichment: Yes from 0.3 upward, No beneath that.

As a guide, the following entries are already answered.
> print(dat)
   residue.change  cat
1           CAGTC   No
2           TGTGT   No
3           TCCGC   No
4           CGCTG   No
5           GTTCT  Yes

q: Decide: ligation selection enrichment of TAGTC >= 0.3?
a: No

q: Kindly determine if ligation selection enrichment recorded for TACTT is above or exactly 0.3.
a: No

q: Has TGTCA a recorded ligation selection enrichment greater than or equal to 0.3?
a: Yes

q: Could you verify whether the entry TGACC shows ligation selection enrichment of no less than 0.3?
a: No

q: Quick check: does AGGGG have ligation selection enrichment greater than or equal to 0.3?
a: No

q: Please tell me: is the variant CGCAG at or over 0.3 in terms of ligation selection enrichment?
a: No

q: Reported ligation selection enrichment at or above 0.3? CCAAG
a: Yes

q: Reported ligation selection enrichment reaches at least 0.3 for GACCG ?
a: Yes

q: Item GTGCC with ligation selection enrichment of 0.3 or above?
a: No

q: Please check the record GAGTC and state if its ligation selection enrichment is at or above 0.3.
a: No

q: Could you please find out whether CACGG has ligation selection enrichment that meets 0.3 or exceeds it?
a: No

q: Entry ACTGT : is its ligation selection enrichment no less than 0.3?
a: No

q: Hi, just wondering whether GACAT shows ligation selection enrichment of 0.3 or higher.
a: Yes

q: Does TCCCA have a reported ligation selection enrichment of at least 0.3?
a: No

q: Decide: is the reported value of ligation selection enrichment for ACTCA equal to or greater than 0.3?
a: No

q: Item GTAGC with ligation selection enrichment of 0.3 or above?
a: No
